Target: Homeobox protein Hox-A13 (Mus musculus)
Assay: disruptors of Hoxa13 oligonucleotide interaction – biochemical, fluorescence polarization, labeled oligonucleotide, primary screen (AID 1185)
Conditions: Hoxa13:DNA binding, 15 min, higher = more signal, called active from +8 up or from −8 down
Activity calls are given as the source filed them.
Catalogue of compounds with associated z-score

compound: NC(=O)NCC#Cc1ccc2c(c1)[C@]1(C(=O)N2)[C@H](c2ccc(OCCO)cc2)N2[C@H](c3ccccc3)[C@H](c3ccccc3)OC(=O)[C@H]2[C@@H]1C(=O)O
z-score: -5.33 (inactive)

compound: O=C(NC1CC1)[C@@H]1c2ccccc2C(=O)N(Cc2cc(C(F)(F)F)cc(C(F)(F)F)c2)[C@H]1c1ccc(CO)cc1
z-score: -2.66 (inactive)

compound: C=C(C)[C@@H]1CC=C(C(O)C2C=CC3C(=O)N(c4ccccc4)C(=O)C3N2Nc2ccc([N+](=O)[O-])cc2)CC1 (stereo partly drawn)
z-score: -1.49 (inactive)
